Data provenance is the supplement of paper PMC12137928.

Tested on: HCT116
condition: 72 h; ICRF193 0 nM
Counter-ions that a name gives are not always drawn.
List of IC50 cell viability values.

Worked cases, answers included:
>  <compound>
CC1(C)O[C@@H]2[C@@H](CO[C@@]3(COS(N)(=O)=O)OC(C)(C)O[C@@H]23)O1 [Topiramate]

>  <assay-endpoint>
IC50 cell viability

>  <meas-value>
> 45.8 µM

$$$$
>  <compound>
CC(C)(C)NCC(O)COc1cccc2c1CC(O)C(O)C2 (centres undefined) [Nadolol]

>  <assay-endpoint>
IC50 cell viability

>  <meas-value>
> 45.8 µM

$$$$
>  <compound>
OCCN1CCN(CCCN2c3ccccc3Sc3ccc(C(F)(F)F)cc32)CC1 [Fluphenazine hydrochloride]

>  <assay-endpoint>
IC50 cell viability

>  <meas-value>
29.1 µM

$$$$
>  <compound>
NCC1(CC(=O)O)CCCCC1 [Gabapentin]

>  <assay-endpoint>
IC50 cell viability

>  <meas-value>
> 45.8 µM

$$$$
>  <compound>
CCC1(c2ccc(N)cc2)CCC(=O)NC1=O (centres undefined) [Aminoglutethimide]

>  <assay-endpoint>
IC50 cell viability

>  <meas-value>
> 45.8 µM

$$$$
>  <compound>
CCc1nn(CCCN2CCN(c3cccc(Cl)c3)CC2)c(=O)n1CCOc1ccccc1 [Nefazodone hydrochloride]

>  <assay-endpoint>
IC50 cell viability

>  <meas-value>
14.6 µM

$$$$
>  <compound>
CC(C)COC(=O)c1ccc(N)cc1 [Isocaine]

>  <assay-endpoint>
IC50 cell viability

>  <meas-value>
> 45.8 µM

$$$$
>  <compound>
CN1CCC(=C2c3ccccc3C=Cc3ccccc32)CC1 [Cyproheptadine hydrochloride]

>  <assay-endpoint>
IC50 cell viability

>  <meas-value>
> 45.8 µM

$$$$

Given item C/C(=C1\CCOC(=O)S1)N(C=O)Cc1cnc(C)nc1N [Cycotiamine] , the value recorded as its IC50 cell viability is > 45.8 µM

* * *

System: HCT116
experiment-notes: efficacy (maximum % inhibition of viability vs DMSO); higher = more cytotoxic
condition: 72 h; ICRF193 200 nM
Counter-ions that a name gives are not always drawn.
List of efficacy values.
Provide only the numeric value, understood in %.

Worked cases, answers included:
>  <molecule>
CCCCCCCCCCCCCCCC[N+](C)(C)Cc1ccccc1 [Benzylhexadecyldimethylammonium chloride]

>  <efficacy [%]>
129

$$$$
>  <molecule>
O=C1NC2CCCCN2C12CCN(CCCN1c3ccccc3CCc3ccc(Cl)cc31)CC2 (stereo not given)

>  <efficacy [%]>
129

$$$$
>  <molecule>
COc1cc([C@@H]2c3cc4c(cc3[C@@H](O[C@@H]3O[C@@H]5CO[C@@H](C)O[C@H]5[C@H](O)[C@H]3O)[C@H]3COC(=O)[C@H]23)OCO4)cc(OC)c1O [Etoposide]

>  <efficacy [%]>
99.1

$$$$
>  <molecule>
CN(C)CC/C=C1\c2ccccc2CSc2ccccc21 [Dosulepin hydrochloride]

>  <efficacy [%]>
69.1

$$$$
>  <molecule>
CNCC[C@@H](Oc1ccccc1C)c1ccccc1 [Atomoxetine hydrochloride]

>  <efficacy [%]>
81.3

$$$$
>  <molecule>
CO[C@H]1/C=C/O[C@@]2(C)Oc3c(C)c(O)c4c(O)c(c(/C=N/N5CCN(C)CC5)c(O)c4c3C2=O)NC(=O)/C(C)=C\C=C\[C@H](C)[C@H](O)[C@@H](C)[C@@H](O)[C@@H](C)[C@H](OC(C)=O)[C@@H]1C

>  <efficacy [%]>
44.1

$$$$
>  <molecule>
c1cnc2cc3c(cc2n1)[C@@H]1CNC[C@H]3C1 [Varenicline tartrate]

>  <efficacy [%]>
80.4

$$$$
>  <molecule>
CCN(CC)CCOc1ccc(C(=C(Cl)c2ccccc2)c2ccccc2)cc1 [Clomifene citrate]

>  <efficacy [%]>
120

$$$$
>  <molecule>
Cc1cccc(C)c1OCC(=O)N[C@@H](Cc1ccccc1)[C@@H](O)C[C@H](Cc1ccccc1)NC(=O)[C@H](C(C)C)N1CCCNC1=O

>  <efficacy [%]>
73.7

$$$$
>  <molecule>
CC(C)(C)c1cc(C(C)(C)C)c(NC(=O)c2c[nH]c3ccccc3c2=O)cc1O

>  <efficacy [%]>
98.6

$$$$

Given item Cc1cc(C2CCCCC2)n(O)c(=O)c1 , the value recorded as its efficacy is 98.9
